B1: Hairpin Ribozyme (parent)
chain: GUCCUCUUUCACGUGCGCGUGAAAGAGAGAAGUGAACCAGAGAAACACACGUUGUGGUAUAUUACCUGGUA

variants of: B1; experiment: self-cleavage, relative activity (ratio to wild type); higher = more cleavage; co-transcriptional

{"columns": ["MUTANT ID", "self-cleavage"],
 "data": [
  ["A45C C46G", 0.152],
  ["G29C A41U", 0.103],
  ["G15U G21A", 0.872],
  ["A44U U60A", 0.239],
  ["G1U U67C", 0.0702]
]}
